Items are presented alongside their recorded viability, T/C.
# Test system: 889142-216-R-J1-PDC complex spheroid viability;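 note: spheroids exposed to compounds for seven days; 100% = DMSO vehicle control viability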
# test method notes: Anticancer human tumor 889142-216-R-J1-PDC patient-derived bladder carcinoma cell line growth inhibition [POLQ]
# test context: second compound 0.0316 µM; first compound 0.1 µM; stronger effect = lower value
Your answer should be a plain number; it is taken to be in %.

Examples with their reported viability, T/C follow.
Measured viability, T/C of CCc1cc2c(N3CCc4c(cc(Cn5ccnc5)cc4-c4cn(C)nc4C(F)(F)F)C3=O)cc(C)nc2c(OC)n1 + Nc1ccc(C#CCN(C(=O)Cc2ncc(C(F)(F)F)cc2C(F)(F)F)c2ccc(F)cc2)nn1 : 96.9

Short answer for C=CC(=O)N1CCN(c2nc(=O)n(-c3c(C)ccnc3C(C)C)c3nc(-c4c(O)cccc4F)c(F)cc23)C(C)C1 (stereo not given) + COC1C(OC(N)=O)C(O)C(Oc2ccc3c(O)c(NC(=O)c4ccc(O)c(CC=C(C)C)c4)c(=O)oc3c2C)OC1(C)C : viability, T/C was 114

viability, T/C measured on C=CC(=O)N1CCN(c2nc(=O)n(-c3c(C)ccnc3C(C)C)c3nc(-c4c(O)cccc4F)c(F)cc23)C(C)C1 (stereo not given) + Nc1ccc(C#CCN(C(=O)Cc2ncc(C(F)(F)F)cc2C(F)(F)F)c2ccc(F)cc2)nn1 = 111

Quick note, viability, T/C for O=C(c1cc(Cc2n[nH]c(=O)c3ccccc23)ccc1F)N1CCN(C(=O)C2CC2)CC1 + COC1C(OC(N)=O)C(O)C(Oc2ccc3c(O)c(NC(=O)c4ccc(O)c(CC=C(C)C)c4)c(=O)oc3c2C)OC1(C)C landed at 92.2

Next:
Measured viability, T/C, C=CCn1c(=O)c2cnc(Nc3ccc(N4CCN(C)CC4)cc3)nc2n1-c1cccc(C(C)(C)O)n1 + COC1C(OC(N)=O)C(O)C(Oc2ccc3c(O)c(NC(=O)c4ccc(O)c(CC=C(C)C)c4)c(=O)oc3c2C)OC1(C)C : 83.1
